# Test system: MS2 coat protein
# test-method-notes: apparent KD of MS2 coat protein; higher = weaker reporter binding
# condition-info: Eterna round: R107; input ligand: theophylline 20 uM
measured-parameter: apparent KD of MS2 coat protein (nM)
Numeric answer only, unit nM assumed.

# example entries with known answers
| macromolecule-sequence | apparent KD of MS2 coat protein (nM) |
| --- | --- |
| UCCCUACCGUCGGCCGCCACUGGGUCAUACAGUUCGUAACUACAUGAGGAUCACCCAUGUGCAGCCAGGACCGGGACGCGCCUUG [theeternabot_sameState_MS2_Trp_B_16] | 153 |
| GGGCGCUAUCCCGCGAGGGAUAGCGUUCGUCGAGGACCGGUACGGCCGCCACUCGAACGAGUGGUGACAUGAGGAUCACCCAUGU [Oaa] | 55.2 |

Could you now look at the following sequence, please?
So what's the measured apparent KD of MS2 coat protein for this one? UCUUUCUUUGUAGAUACCAGCAUGUUAAGUUUCUUUUGACAUGAGGAUCACCCAUGUACAUGCCCUUGGCAGCUACAUUUUCUUU [SSThB NP+V+V2 Same Structure]
16.3

* * *

# Test system: K4 kissing-loop RNA reporter;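 further: bound reporter read as fluorescence of individual clusters on recovered sequencing chips by microscopy, with normalized cluster intensities fitted with a binding model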
# test-method-notes: apparent KD of K4 kissing-loop reporter; higher = weaker reporter binding
# condition-info: Eterna round: R107; input ligand: FMN 200 uM
Lab note: anything with apparent KD of K4 kissing-loop reporter at or over 0.3 µM counts as criterion met; the rest go in criterion not met.

| macromolecule-sequence | target-desc | label-class |
| --- | --- | --- |
| UUCGUAGUAGGAAACUAUUACGAAAAGGAAGGAGCGGCGAAGAAGCCAGGUAGGUCGCCUAUUGACAGUGAUGUUGUUAUAUAGA [#10] | K4 kissing-loop RNA reporter | criterion not met |
| AACCGUGUGGCGGCCGCCACUAGUCUCCAGUGAUGUUGGAGAGAUCACGUAAGUGAUCUCCGACAUAGGACCGGGCCAUAUGGAA [Same State - Tryptophan B (Freestyle 24)] | K4 kissing-loop RNA reporter | criterion met |
| AAAGCAGUAUACUGCAAGACCUAUACUGAUACCAGAGUCAAUUGACUCCCUUGGCAGCGGAUCGAGUGAUGUUCGUAAGGUCAAA [AK4.1 SS Theophylline A] | K4 kissing-loop RNA reporter | criterion met |

Identify whether the reported apparent KD of K4 kissing-loop reporter of the following sequence is 0.3 µM or greater: CCGAUGGGUACAGGAUAUGCCAGUGAUGUUGGUUUAGAUGGACCCAUAAGGAGACACCAGACGGAGGCAGAAGGGUAGCAAGGGA [Isonanti]
criterion not met

Identify whether the reported apparent KD of K4 kissing-loop reporter of the following sequence is 0.3 µM or greater: UUUGGUUUCUCGGCCGCCACUCGUUGUCUAUCGGCUUCAGGGAUAUAGUGAUGUUAUGUAUAGAAGAGGACCGGGAGAAGGUUCU [ExTryptoB.Dx]
criterion not met

* * *

# Test system: MS2 coat protein
# test-method-notes: apparent KD of MS2 coat protein; designed switch direction (-1 OFF switch, 1 ON switch): -1; higher = weaker reporter binding
# condition-info: input ligand: none
Lab note: anything with apparent KD of MS2 coat protein at or over 90 nM counts as fulfilled; the rest go in not fulfilled.

Example cases with answers are listed next.
| macromolecule-sequence | label-class |
| --- | --- |
| AAGAAACAUGAGGAUCACCCAUGUGAGGAUAUGAACCGCCCGGCGUAAGCAAAAUAAAUCAGAAGGCACAAAGG [salish99_ex1_r4_006] (Eterna round: R97, puzzle: Exclusion 1) | not fulfilled |
| UUUAAUCAUGUAGGAUAUGCGUGGCGAAGCUAUGCAGAAGGACAUGAGGAUCACCCAUGUUCUAGCGUCUGCGUACAGAUGCUA [JL ENG1 1.36] (Eterna round: R96, puzzle: Exclusion NG 1) | not fulfilled |

Identify whether the reported apparent KD of MS2 coat protein of the following sequence is 90 nM or greater: UGUAUAGGAGUGAGGAUAUGGAAACUGGAAAAGGACCAGAAGGCACAUGAGGAUCACCCAUGUGGUUCUCAAGA [Eternabot (Original) Solution 50] (Eterna round: R97, puzzle: Brourd's mod of Exclusion 4)
fulfilled

* * *

# Tested on: MS2 coat protein
# test-method-notes: apparent KD of MS2 coat protein; designed switch direction (-1 OFF switch, 1 ON switch): -1; higher = weaker reporter binding
# condition-info: Eterna round: R95; input ligand: microRNA oligo, concentration not stated
Lab note: anything with apparent KD of MS2 coat protein at or over 0.04 µM counts as label 1; the rest go in label 0.

Example cases with answers are listed next.
| macromolecule-sequence | target-desc | label-class |
| --- | --- | --- |
| AAACCUGCCCAUGACCGCAAGCUUUUCGCUUGUCUUACCACAUGAGGAUCACCCAUGUGACAUGGGCUCCUUAUAAA [Usorle] (puzzle: Sensor v3, turn-off variant 2) | MS2 coat protein | label 0 |
| UCGCUGCGAGGAUAUACGUGCGCGCGCUUUCGUUUGCGCGUACAUGAGGAUCACCCAUGUAGAAGGCGCGCUGC [Apr-15 SS2-6] (puzzle: Exclusion 2) | MS2 coat protein | label 0 |
| GUGGUGGGUUUUUCGAGUAACAUGAGGAUCACCCAUGUAUUAGUUGGAUGUAUCAAGCUUUGUGCUCGACUUAUAUA [JR_SV3TOV1_Sub044] (puzzle: Sensor v3, turn-off variant 1) | MS2 coat protein | label 1 |
| GUGGUACAUGAGGAUCACCCAUGUUAGGAUAUCGCGUGAGGUUUUACUUCCGCGCGCGCGAGAAGGGACGUCUU (puzzle: Exclusion 1) | MS2 coat protein | label 0 |
| CAUCCACAUGAGGAUCACCCAUGUCAGGAUAUCUAUCAUAGCAUCGAAAGAUGCGGGUAGAGAAGGGACAAACC [ChP Ext 10-04-2015 #9] (puzzle: Exclusion 1) | MS2 coat protein | label 0 |
| ACGUGAUAUCUGUCGGUGGACAUGAGGAUCACCCAUGUAAGCUUCUUGCUCGUCUUAUAACCCGGUGACAGACCUUC [Zalaso] (puzzle: Sensor v3, turn-off variant 1) | MS2 coat protein | label 1 |
| GAUUAUGCGAGCUUUAGGGACAUGAGGAUCACCCAUGUUCGUCUUAUUGGUCUAGGUACGCUAACAUACCUAAAUCU [JMF 4] (puzzle: Sensor v3, turn-off variant 1) | MS2 coat protein | label 0 |
| AUUAGCUGAGGAUAUGCAGCUUUGUUCGUCGAGUGAAAAGAACAUGAGGAUCACCCAUGUAGAAGGCAGUUGAC [Raargexe] (puzzle: Exclusion 2) | MS2 coat protein | label 0 |
| CGUACUAACACGAAAGUGUUAGUACAAUAAGCUUGUGAAACAUGAGGAUCACCCAUGUCCUCAUAAGCUCGUCUUAG [salish99_TOv2_r3_008] (puzzle: Sensor v3, turn-off variant 2) | MS2 coat protein | label 1 |
| GCCAGUGCAGGAUAUCUAUAACCCUACAUGAGGAUCACCCAUGUCCAGCGAAAGCUGGAGGGAGAAGGGCACUGGC [Fiskers Ex 5 - 27] (puzzle: Exclusion 5) | MS2 coat protein | label 0 |

Identify whether the reported apparent KD of MS2 coat protein of the following sequence is 0.04 µM or greater: UGAUCAAAUGUCAGGAUAUGCUGUUGUAAUCAACAGCAGAAGGGACAUGAGGAUCACCCAUGUCUUGUCGAUUU [Magic-03] (puzzle: Brourd's mod of Exclusion 4)
label 0

Identify whether the reported apparent KD of MS2 coat protein of the following sequence is 0.04 µM or greater: UUUUACAUAGGAUAUAGUUUCUUUUACAUGAGGAUCACCCAUGUUUCUCUUCUCUCUCUUCUAGAAGGAUGUUUCU [JR_E5_Sub013] (puzzle: Exclusion 5)
label 0

* * *

Consider the following sequences and their measured apparent KD of MS2 coat protein readings.
# Test system: MS2 coat protein
# test-method-notes: apparent KD of MS2 coat protein; higher = weaker reporter binding
# condition-info: Eterna round: R107; input ligand: theophylline 20 uM
Numeric answer only, unit nM assumed.

# example entries with known answers
| macromolecule-sequence | apparent KD of MS2 coat protein (nM) |
| --- | --- |
| CCUAUGCAGUCGGCCGCCACUGAGUCCUCAAUAAUAAAUUAAUAAACAUGAGGAUCACCCAUGUACAGGACCGGGACUGUAUAGG [Ex Tryptophan B 12] | 324 |
| AUCUACGUGGGUGAUACCAGCUGGUUAGUACACAUGAGGAUCACCCAUGUGCAGGCAGGCAGCCCUUGGCAGCACCGCAGUGGCU [theeternabot_sameState_MS2_Theo_B_36] | 221 |
| AUAUAUACAUGAGGAUCACCCAUGUUAUUUCGAGGACCGGUACGGCCGCCACUCGAUAGAGUAGAAGUAUUUUGGGAUAGUUGAU [JR_SSTryptoA_Sub015] | 30.7 |
| UAACAUGAGGAUCACCCAUGUAUAGUCGAUACCAGCUCUGUCUAGAGCCCUUGGCAGCGACACUGGUAUCCAUGGGUGUGGAUAC [(Ms2)-(Theo)-(T)'-(M)'-(M)''] | 98.4 |
| UAAAACAUGAGGAUCACCCAUGUAUUUGAUACCAGAGUGAUGAUCCUCCCUUGGCAGCAAAUAACGCAUUGAUUACAAUGCGAAA [Mat - Same State Theophlline A - Mod of Eli - D28] | 121 |

So what's the measured apparent KD of MS2 coat protein for this one? GUUGGACUUUCGGCCGCCACUGAGAGAGUCGUGUGAACAUGAGGAUCACCCAUGUAAUAUAUAUACAGGACCGGGAGGGUUGUAA [4.N]
22.2

So what's the measured apparent KD of MS2 coat protein for this one? ACAUGAGGAUCACCCAUGUGAAGCAGGGUACGAGGACCGGUACGGCCGCCACUCGAACAUUAUAACGAGUGAAUGGCAACGAUGU [B15Jan]
18.5

So what's the measured apparent KD of MS2 coat protein for this one? AGCGCAUCCGUAUAGGAUGCGCUCCAUGAAGGAGCGCGGGAAACCGCAGGUAGGUCGCGUGACAUGAGGAUCACCCAUGUGUAUU [#17 Same State - Arginine A]
27.7

So what's the measured apparent KD of MS2 coat protein for this one? AACAGGGUCUGAAGGAGCGCGAUCACAUGAGGAUCACCCAUGUGAAAUGGUAGAUGAUACUCGCAGGUAGGUCGCAGUACUUGAC [Same State Arginine B GF 15]
127

So what's the measured apparent KD of MS2 coat protein for this one? CCGUCACAUGAGGAUCACCCAUGUGCGGAAGGAGCGGACGAAAGUCCAGGUAGGUCGCCGUAUAGCCAAUGACCAGCAGUGUCGG [XARG-A 21]
15.4

So what's the measured apparent KD of MS2 coat protein for this one? CAUAAUUUAUCCUAUAAAACUAUUAGUGAUACCAGCACCUCAUGAUGCCCUUGGCAGCACUUACAUGAGGAUCACCCAUGUUUUA [JR_NU_SSTheophyA_Sub029]
223

So what's the measured apparent KD of MS2 coat protein for this one? CACAGUGCGAAUUUGAAAUCGCACGAUCCUCGAGGACCGGUACGGCCGCCACUCGCGCGGGUCGUACAUGAGGAUCACCCAUGUC [Beertele]
600

So what's the measured apparent KD of MS2 coat protein for this one? GCGAUGGAGCGAAGGAGCGUGCUGGUACAUGAGGAUCACCCAUGUGAGUCGCAGCGCUAAGCACAGGUAGGUCGCGCUCCAUCGC [EAB NP+V+V2 #11]
35.3

So what's the measured apparent KD of MS2 coat protein for this one? UUAACGAGCUGAAGGAGCGCUCUUCAUCAACAUGAGGAUCACCCAUGUACACAUAAUAGGGAGCAGGUAGGUCGCAGCGGGAUGG [#24 Same State - Arginine B]
24.8
